# TARGET OR SYSTEM: furin, P09958;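 further: purified furin at 1:10 enzyme:substrate in 50 mM HEPES pH 7.5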
# Sequence (P09958 whole entry): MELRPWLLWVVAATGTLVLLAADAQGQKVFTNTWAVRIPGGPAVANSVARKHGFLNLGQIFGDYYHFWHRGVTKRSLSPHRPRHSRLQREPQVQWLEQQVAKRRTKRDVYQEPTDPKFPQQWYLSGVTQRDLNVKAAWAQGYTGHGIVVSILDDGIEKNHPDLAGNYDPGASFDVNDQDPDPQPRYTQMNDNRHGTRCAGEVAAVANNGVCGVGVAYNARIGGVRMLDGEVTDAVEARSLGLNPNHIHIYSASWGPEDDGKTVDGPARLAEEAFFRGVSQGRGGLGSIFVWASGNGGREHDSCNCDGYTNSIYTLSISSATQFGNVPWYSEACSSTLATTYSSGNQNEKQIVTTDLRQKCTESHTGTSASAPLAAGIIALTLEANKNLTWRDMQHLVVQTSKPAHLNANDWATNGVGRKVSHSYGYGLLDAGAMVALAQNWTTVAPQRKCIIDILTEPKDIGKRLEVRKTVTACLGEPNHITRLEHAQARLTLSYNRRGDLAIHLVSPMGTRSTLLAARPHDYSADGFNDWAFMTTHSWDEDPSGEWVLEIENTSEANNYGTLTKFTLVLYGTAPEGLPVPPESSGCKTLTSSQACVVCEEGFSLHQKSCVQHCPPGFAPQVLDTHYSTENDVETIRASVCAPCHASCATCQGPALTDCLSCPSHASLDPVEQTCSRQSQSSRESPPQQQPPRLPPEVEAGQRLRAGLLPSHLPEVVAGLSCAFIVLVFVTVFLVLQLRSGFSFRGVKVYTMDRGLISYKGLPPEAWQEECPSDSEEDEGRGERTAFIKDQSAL
# EXPERIMENTAL DETAILS: furin cleavage Z-score vs untreated control; higher = more cleavage, active = 3.5 or more, inactive = 1 or less, 8 variable residues between constant flanks
# MEASUREMENT CONDITIONS: 7.5 min
The other results are listed elsewhere or left out. The hit rate among all sequences tested is not known here.
READOUT KIND: furin cleavage Z-score

INSERT INTO assay_data (entry_sequence, result_number) VALUES
  ('CARVKRGWVWAGNASASA [FS-2101]', 2.07),
  ('CAMEWCSQHLAGNASASA [HC1708]', 0.411),
  ('CAEVPCHRVSAGNASASA [HC2390]', 2.12),
  ('CAVDIRLKRVAGNASASA [FS-148]', 0.517),
  ('CAPDYNPPLVAGNASASA [HC1306]', 0.58),
  ('CAQVVTSTWVAGNASASA [HC2162]', 0.38),
  ('CAICQRVKRVAGNASASA [FS-1633]', 0.73),
  ('CALGLLQTASAGNASASA [HC1027]', -0.682),
  ('CALTPPHSAKAGNASASA [HC1416]', 0.524),
  ('CASTPCSADLAGNASASA [HC2551]', 1.45),
  ('CARPKRGWVWAGNASASA [FS-2164]', -0.398),
  ('CARVKRIFYQAGNASASA [FS-2530]', 1.69),
  ('CARVESENKVAGNASASA [HC1282]', 0.35),
  ('CAMGECSQHLAGNASASA [HC1696]', 2.31),
  ('CALLLAAGVGAGNASASA [HC1659]', -1.34);

Cited source: the supplement of paper PMC3545927
